Entry source: ChEMBL document CHEMBL5724914

Conditions: human gut metagenome, 24 h, 2 µM; also: call rule not given here

{"compound": "OC(Cn1cncn1)(Cn1cncn1)c1ccc(F)cc1F [FLUCONAZOLE]", "Bacterial Biotransformation": "Compound NOT metabolized"}
{"compound": "COC(=O)C1=C(C)NC(C)=C(C(=O)OC(C)C)C1c1cccc2nonc12 (configuration not stated) [ISRADIPINE]", "Bacterial Biotransformation": "Compound metabolized"}
{"compound": "Cc1ccc(-c2nc3ccc(C)cn3c2CC(=O)N(C)C)cc1 [ZOLPIDEM]", "Bacterial Biotransformation": "Compound metabolized"}
{"compound": "CN/C(=N/CCSCc1nc[nH]c1C)NC#N [CIMETIDINE]", "Bacterial Biotransformation": "Compound NOT metabolized"}
{"compound": "C[C@@H](CO)NC(=O)[C@@H]1C=C2c3cccc4[nH]cc(c34)C[C@H]2N(C)C1.O=C(O)/C=C\\C(=O)O [ERGONOVINE MALEATE]", "Bacterial Biotransformation": "Compound NOT metabolized"}
{"compound": "NC12CC3CC(CC(C3)C1)C2 [AMANTADINE]", "Bacterial Biotransformation": "Compound NOT metabolized"}
{"compound": "C#C[C@]1(O)CC[C@H]2[C@@H]3CCC4=Cc5oncc5C[C@]4(C)[C@H]3CC[C@@]21C [DANAZOL]", "Bacterial Biotransformation": "Compound metabolized"}
{"compound": "CO[C@]12C[C@@H](COC(=O)c3cncc(Br)c3)CN(C)[C@@H]1Cc1cn(C)c3cccc2c13 [NICERGOLINE]", "Bacterial Biotransformation": "Compound NOT metabolized"}
{"compound": "CN1CC(=O)N2[C@H](c3ccc4c(c3)OCO4)c3[nH]c4ccccc4c3C[C@@H]2C1=O", "Bacterial Biotransformation": "Compound NOT metabolized"}
{"compound": "COc1ccccc1N1CCN(CC(O)COc2cccc3ccccc23)CC1 (configuration not stated) [NAFTOPIDIL]", "Bacterial Biotransformation": "Compound NOT metabolized"}
{"compound": "CC(CN(C)C)CN1c2ccccc2CCc2ccccc21.O=C(O)/C=C\\C(=O)O (configuration not stated) [TRIMIPRAMINE MALEATE]", "Bacterial Biotransformation": "Compound metabolized"}
{"compound": "CCCCCOC(=O)Nc1nc(=O)n([C@@H]2O[C@H](C)[C@@H](O)[C@H]2O)cc1F [CAPECITABINE]", "Bacterial Biotransformation": "Compound metabolized"}
{"compound": "CN1CCOC(c2ccccc2)c2ccccc2C1 (configuration not stated) [NEFOPAM]", "Bacterial Biotransformation": "Compound metabolized"}
{"compound": "N#Cc1ccc(C(c2ccc(C#N)cc2)n2cncn2)cc1 [LETROZOLE]", "Bacterial Biotransformation": "Compound NOT metabolized"}
{"compound": "COc1ccc2[nH]c([S+]([O-])Cc3ncc(C)c(OC)c3C)nc2n1 (configuration not stated) [TENATOPRAZOLE]", "Bacterial Biotransformation": "Compound NOT metabolized"}
{"compound": "CCCc1nn(C)c2c(=O)[nH]c(-c3cc(S(=O)(=O)N4CCN(C)CC4)ccc3OCC)nc12.O=C(O)CC(O)(CC(=O)O)C(=O)O [SILDENAFIL CITRATE]", "Bacterial Biotransformation": "Compound NOT metabolized"}
{"compound": "C[C@@H]1C[C@H]2[C@@H]3CCC4=CC(=O)C=C[C@]4(C)[C@@]3(F)[C@@H](O)C[C@]2(C)[C@@]1(O)C(=O)CO [DEXAMETHASONE]", "Bacterial Biotransformation": "Compound NOT metabolized"}
